Please provide measured TGI for the entries that follow.
Tested on: HOP-62 NSCLC
Experiment: NCI tumour cell line growth inhibition, 48 h
Numbers only, in µM.

{"molecule": "COC(=O)c1nc2c(C)c(O)c(O)c([C@H](C)CCC=C(C)C)c2o1", "TGI / µM": 67.7}

Take each entry in turn and give its TGI.
1. COc1ccc2c(CNCCCCO)cc3cc4c(cc3c2c1)OCO4
2. N#CC(C(=O)c1ccccc1F)c1nc2cc(C(F)(F)F)ccc2s1 (stereo unspecified)
3. C=C1C(=O)O[C@H]2[C@H]1CC/C(Cn1cc(CCC)nn1)=C\CC[C@@]1(C)O[C@@H]21

Reply |
1: 10.6; 2: 63.1; 3: 27.8

Ask | Looking for the measured TGI of CCCCCCCCCCCCCC(=O)OCC1OC(OC)C(NC(=O)N(CCCl)N=O)C(O)C1O (stereo unspecified) , can you help?
Reply | 75.9

Taken from PubChem BioAssay (NCI).
